Biological target: T1, full-length human Tau (flTau) (human, UniProt P10636-8 1-441)
T1 construct: range 1-441; bought (SignalChem); also called human Tau-441
T1 sequence (P10636 other isoform, or with tags, fused parts or gaps limits assumed): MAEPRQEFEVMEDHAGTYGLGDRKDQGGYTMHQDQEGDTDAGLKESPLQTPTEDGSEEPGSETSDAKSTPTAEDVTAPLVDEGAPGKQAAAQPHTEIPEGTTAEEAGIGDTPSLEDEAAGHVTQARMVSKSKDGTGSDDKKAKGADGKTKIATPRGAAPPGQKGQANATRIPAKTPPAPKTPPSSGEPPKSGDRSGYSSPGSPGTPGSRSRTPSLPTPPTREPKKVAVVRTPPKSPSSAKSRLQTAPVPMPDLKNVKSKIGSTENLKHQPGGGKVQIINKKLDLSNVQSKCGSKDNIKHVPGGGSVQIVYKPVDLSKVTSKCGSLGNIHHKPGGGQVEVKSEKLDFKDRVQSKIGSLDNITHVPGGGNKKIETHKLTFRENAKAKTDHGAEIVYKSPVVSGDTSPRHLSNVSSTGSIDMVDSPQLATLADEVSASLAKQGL
Test: SPR, hybridoma Ab on anti-IgG chip, flTau analyte
Record form. Attribute: pKd. Fill in for each entry.
One number for each entry, as −log10 of the molar value.

{"BINDER": "22G7-C9 (antibody, V domains shown, hybridoma supernatant) VH: QIQLVQSGPELKKPGETVKISCKASGYTFTDCSIHWVKQAPGEGLKWMGWINTETGEPSYADDFKGRFAFSLETSASTAFLQINNLKSEDTASYFCGTAYYRYDGALDYWGQGTSVTVSS VL: DIVLTQSPASLAVSLGQRATISCRASQSVSTSSYSYMHWFQQKPGQPPKLLIKYASNLESGVPARFSGSGSGTDFTLNIHPVEEEDTATYYCQHSWELPWTFGGGTKLEIK", "pKd": 7.44}

# batch: return pKd for each of the 2 binders below
1. 30A1-C9 (antibody, V domains shown, hybridoma supernatant) VH: GVQLQQSGPELVKPGASVKISCKTSGYTFTEYTMHWMKQSHGKSLEWIGGIDPNTGNTNYNQKFKGKATLTVDKSSSTAYMDLRSLTSEDSAVYYFYGSGYWGQGTILTVSS VL: DVLMTQSPLSLPVSLGDQASISCRSSQSIVHSNGNTYLEWFLQKPGQSPKLLIYKVSNRFSGVPDRFSGSGSGTDFTLKISRVEAEDLGVYYCFQASHVPRTFGGGTKLEIK
2. 54C1-H11 (antibody, mouse IgG2a, V domains shown) VH: EVQLVESGGDLVKPGGSLKVSCVASGFTFRSYGMSWVRQTPDKRLDWVATISSGGNYTYYPDSVKGRFTISRDNAKNTLYLQMSSLKSEDTAMYYCASSYSGAMDYWGQGTSVTVSS VL: DTVMTQSPLSLPVSLGDQASISCRSSQSIVHSNGNTYLEWYLQKPGQSPKLLIYTVSNRFSGVPDRFSGSGSGTDFTLKISRVEAEDLGVYYCFQGSHVPWTFGGGTKLEIK

Ans.
9.22
8.82

Hello, the source for this data is patent US20190367592A1, in case you need it.
